Kindly state Plant response rating, Nutsedge, Yellow for each of the entries shown.
# Tested on: yellow nutsedge (Cyperus esculentus)
# PROTOCOL_NOTES: Test B pre-/postemergence plant response
# Assay type: in vivo
# SETTINGS: Preemergence, 31 g ai/ha; scale 0 to 100 (0 no effect, 100 complete control)
Provide a numeric answer; units are not to be included.

Q) Fill in the blank: the reported Plant response rating, Nutsedge, Yellow of O=C1CCCC(O)=C1C(=O)c1cnc(-c2ccccc2)n(CC2CCCO2)c1=O (stereo not shown) is ____.
A) 55

Q) Fill in the blank: the reported Plant response rating, Nutsedge, Yellow of Cc1ccccc1-n1c(-c2cccc(Cl)c2)ncc(C(=O)C2=C(O)CCCC2=O)c1=O is ____.
A) 0

Q) Fill in the blank: the reported Plant response rating, Nutsedge, Yellow of CCCCc1ncc(C(=O)C2=C(O)CCCC2=O)c(=O)n1-c1ccccc1 is ____.
A) 10

Q) Fill in the blank: the reported Plant response rating, Nutsedge, Yellow of Cc1cccc(Cl)c1-n1c(-c2ccccc2)ncc(C(=O)C2=C(O)CCCC2=O)c1=O is ____.
A) 25
